# subject of test: Aurora kinase A (Homo sapiens) (UniProt O14965)
# Sequence (whole entry): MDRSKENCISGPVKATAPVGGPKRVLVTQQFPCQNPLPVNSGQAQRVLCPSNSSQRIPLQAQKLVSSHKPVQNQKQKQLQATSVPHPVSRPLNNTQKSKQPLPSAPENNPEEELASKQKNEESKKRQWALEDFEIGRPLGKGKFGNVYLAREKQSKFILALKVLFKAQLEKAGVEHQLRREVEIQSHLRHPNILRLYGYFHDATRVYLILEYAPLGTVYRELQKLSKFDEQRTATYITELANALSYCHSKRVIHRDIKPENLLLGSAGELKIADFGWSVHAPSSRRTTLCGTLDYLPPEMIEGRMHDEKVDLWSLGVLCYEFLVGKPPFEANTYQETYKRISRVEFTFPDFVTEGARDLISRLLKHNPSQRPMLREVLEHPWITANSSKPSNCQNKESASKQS
# protocol description: Inhibition of Aurora A at 100 uM
endpoint label: inhibition (%)

Please review the following examples before continuing.
                               item_smiles                           subject_of_test  quantitative_result
0       O=C1NCc2cccc(-c3c[nH]c4ccccc34)c21  Aurora kinase A (Homo sapiens) (UniProt O14965)                   60
1            CN1Cc2cccc(-c3ccc[nH]3)c2C1=O  Aurora kinase A (Homo sapiens) (UniProt O14965)                   37
2  CC(C)(C)OC(=O)n1cccc1-c1cccc2c1C(=O)NC2  Aurora kinase A (Homo sapiens) (UniProt O14965)                   25

1. COc1ccc2[nH]c(-c3cccc4c3C(=O)NC4=O)cc2c1
2. COc1ccc(NC(=O)c2cccc3c2C(=O)NC3)cc1
Challenge: Two entries are listed, 1 and 2 . Which one carries the higher inhibition? Write the label of whichever entry you select.
Response given: 2

----------
# subject of test: Vascular endothelial growth factor receptor 2 (Homo sapiens, UniProt P35968)
# Sequence (P35968 whole entry): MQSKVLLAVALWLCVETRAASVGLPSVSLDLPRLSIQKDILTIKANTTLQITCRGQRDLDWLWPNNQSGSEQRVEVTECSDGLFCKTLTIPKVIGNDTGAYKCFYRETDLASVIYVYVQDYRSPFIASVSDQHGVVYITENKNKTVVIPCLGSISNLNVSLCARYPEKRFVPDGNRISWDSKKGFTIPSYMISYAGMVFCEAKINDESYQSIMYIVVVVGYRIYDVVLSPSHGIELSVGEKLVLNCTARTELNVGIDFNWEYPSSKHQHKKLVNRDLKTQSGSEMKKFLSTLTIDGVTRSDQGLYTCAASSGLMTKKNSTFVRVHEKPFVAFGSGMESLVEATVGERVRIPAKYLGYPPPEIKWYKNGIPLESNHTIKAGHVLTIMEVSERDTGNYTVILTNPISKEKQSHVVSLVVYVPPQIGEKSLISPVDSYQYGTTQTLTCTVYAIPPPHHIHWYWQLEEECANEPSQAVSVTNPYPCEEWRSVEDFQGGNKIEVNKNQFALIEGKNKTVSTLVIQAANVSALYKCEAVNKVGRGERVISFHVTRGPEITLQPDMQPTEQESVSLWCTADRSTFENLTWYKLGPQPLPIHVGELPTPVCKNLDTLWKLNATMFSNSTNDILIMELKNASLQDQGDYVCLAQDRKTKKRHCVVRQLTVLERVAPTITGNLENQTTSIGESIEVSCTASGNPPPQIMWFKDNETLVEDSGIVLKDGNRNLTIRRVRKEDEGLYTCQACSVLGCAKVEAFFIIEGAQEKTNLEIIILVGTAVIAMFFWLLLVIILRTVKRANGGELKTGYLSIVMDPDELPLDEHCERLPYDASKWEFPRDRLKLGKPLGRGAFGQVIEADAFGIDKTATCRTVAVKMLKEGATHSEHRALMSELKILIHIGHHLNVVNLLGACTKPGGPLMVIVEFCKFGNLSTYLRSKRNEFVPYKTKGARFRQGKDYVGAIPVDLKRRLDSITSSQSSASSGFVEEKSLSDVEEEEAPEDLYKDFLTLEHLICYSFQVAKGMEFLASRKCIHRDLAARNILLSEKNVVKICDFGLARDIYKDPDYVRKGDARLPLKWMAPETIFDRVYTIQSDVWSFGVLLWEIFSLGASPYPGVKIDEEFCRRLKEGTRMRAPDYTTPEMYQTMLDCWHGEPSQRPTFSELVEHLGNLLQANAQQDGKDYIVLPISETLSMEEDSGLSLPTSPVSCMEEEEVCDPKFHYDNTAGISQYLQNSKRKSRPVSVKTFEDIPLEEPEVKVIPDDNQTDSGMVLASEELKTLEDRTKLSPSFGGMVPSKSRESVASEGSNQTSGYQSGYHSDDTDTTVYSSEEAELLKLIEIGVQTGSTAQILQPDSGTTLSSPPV
pIC50: −log10 of the molar value.
endpoint label: pIC50

Please review the following examples before continuing.
                                item_smiles                           subject_of_test  endpoint_label  quantitative_result
0  O=C1NCc2cccc(-c3cc4cc(OCCN5CCOCC5)ccc4[nH]3)c21  Vascular endothelial growth factor receptor 2 (Homo sapiens, UniProt P35968)           pIC50                 7.13
1     O=C1NCc2cccc(-c3cc4cc(O)ccc4[nH]3)c21  Vascular endothelial growth factor receptor 2 (Homo sapiens, UniProt P35968)           pIC50                 6.92

1. O=C1NCc2cccc(-c3cc4ccccc4[nH]3)c21
2. CCN1CCN(CCCOc2ccc3[nH]c(-c4cccc5c4C(=O)NC5)cc3c2)CC1
Challenge: Two entries are listed, 1 and 2 . Which one carries the higher pIC50? Write the label of whichever entry you select.
Response given: 2
(2: 7.85, 1: 6.84)

----------
# protocol description: Half life in rat at 10 mg/kg, po
# Assay type: ADME, organism-based
# Parameters: dose 10 mg/kg, route oral
# condition description: in vivo
endpoint label: half-life (min)
Give just the number in min; leave the unit off.

Lab note: measured half-life of `O=C1NCc2cccc(-c3cc4cc(OCCN5CCCCC5)ccc4[nH]3)c21` was 54

----------
# protocol description: Cmax in rat at 10 mg/kg, po
# Assay type: ADME, organism-based
# Design: dose 10 mg/kg, route oral
# condition description: in vivo
endpoint label: Cmax (ng/mL)
Give just the number in ng/mL; leave the unit off.

Lab note: measured Cmax of `O=C1NCc2cccc(-c3cc4cc(OCCN5CCCCC5)ccc4[nH]3)c21` was 391

----------
# subject of test: Aurora kinase A (Homo sapiens, UniProt O14965)
# Sequence (O14965 whole entry): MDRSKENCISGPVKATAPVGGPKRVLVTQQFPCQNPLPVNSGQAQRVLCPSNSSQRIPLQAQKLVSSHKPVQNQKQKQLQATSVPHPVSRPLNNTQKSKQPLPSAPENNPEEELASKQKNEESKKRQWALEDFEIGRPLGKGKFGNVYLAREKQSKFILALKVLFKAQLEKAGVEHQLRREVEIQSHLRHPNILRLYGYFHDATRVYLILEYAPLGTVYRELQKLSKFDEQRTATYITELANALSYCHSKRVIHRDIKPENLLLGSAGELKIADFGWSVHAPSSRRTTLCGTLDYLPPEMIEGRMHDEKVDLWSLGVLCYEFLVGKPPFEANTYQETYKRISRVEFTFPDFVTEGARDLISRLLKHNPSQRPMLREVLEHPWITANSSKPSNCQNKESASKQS
# protocol description: Inhibition of Aurora A
pIC50: −log10 of the molar value.
endpoint label: pIC50

                                item_smiles                           subject_of_test  quantitative_result
0  O=C1NCc2cccc(-c3cc4cc(OCCN5CCOCC5)ccc4[nH]3)c21  Aurora kinase A (Homo sapiens, UniProt O14965)                 6.87

I. O=C1NCc2cccc(-c3cc4cc(OCCCO)ccc4[nH]3)c21
II. O=C1NCc2cccc(-c3ccc[nH]3)c21
III. O=C1NCc2cccc(-c3cc4cc(OCCN5CCCCC5)ccc4[nH]3)c21
IV. CCN1CCN(CCCOc2ccc3[nH]c(-c4cccc5c4C(=O)NC5)cc3c2)CC1
Challenge: Put the items in sequence by pIC50, from largest down. Answer by listing the labels in the order asked for.
Response given: IV, I, III, II

A. O=C1NCc2cccc(-c3cc4cc(O)ccc4[nH]3)c21
B. COc1ccc2[nH]c(-c3cccc4c3C(=O)NC4)nc2c1
Challenge: Please indicate which entry, A or B , has the lower recorded pIC50 value. Write the label of whichever entry you select.
Response given: B

----------
# protocol description: Oral bioavailability in rat at 10 mg/kg
# Assay type: ADME, organism-based
# condition description: in vivo
endpoint label: bioavailability (%)
Give just the number in %; leave the unit off.

Lab note: measured bioavailability of `O=C1NCc2cccc(-c3cc4cc(OCCN5CCCCC5)ccc4[nH]3)c21` was 20

----------
# protocol description: Drug concentration in nude mouse plasma at 10 mg/kg after 4 hrs
# Format: ADME, organism-based
# Parameters: dose 10 mg/kg
endpoint label: concentration at 4 h (µg/mL)
Give just the number in µg/mL; leave the unit off.

Lab note: measured concentration at 4 h of `O=C1NCc2cccc(-c3cc4cc(OCCN5CCCCC5)ccc4[nH]3)c21` was 0.012
